- testSystem: CHEK1 (human) (UniProt O14757)
- Sequence (O14757 whole entry, looked up): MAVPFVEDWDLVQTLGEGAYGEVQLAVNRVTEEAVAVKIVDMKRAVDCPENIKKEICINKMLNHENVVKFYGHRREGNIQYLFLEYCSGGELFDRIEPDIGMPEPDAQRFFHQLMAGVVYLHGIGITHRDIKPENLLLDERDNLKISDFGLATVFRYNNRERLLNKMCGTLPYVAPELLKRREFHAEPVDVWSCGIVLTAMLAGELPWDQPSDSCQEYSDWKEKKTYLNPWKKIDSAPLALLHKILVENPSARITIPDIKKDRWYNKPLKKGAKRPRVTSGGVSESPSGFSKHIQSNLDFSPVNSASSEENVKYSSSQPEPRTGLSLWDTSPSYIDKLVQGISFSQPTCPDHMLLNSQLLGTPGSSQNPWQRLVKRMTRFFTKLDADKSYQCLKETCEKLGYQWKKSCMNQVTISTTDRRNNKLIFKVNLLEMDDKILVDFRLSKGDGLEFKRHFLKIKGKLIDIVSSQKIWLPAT
- assaySummary: radiometric filter-binding kinase assay
- testParameters: compound 1.0 µM
residual activity strictly less than 90% = T. Otherwise F.

The following compounds have reported results that may help.
compound=NCC(=O)Nc1ccc(-n2nc(C(F)(F)F)cc2-c2ccc3c(ccc4ccccc43)c2)cc1 testsystem="CHEK1 (human) (UniProt O14757)" group=T
compound="CC1=C(CO)C(=O)O[C@@H]([C@@H](C)[C@H]2CC[C@H]3[C@@H]4C[C@H]5O[C@]56[C@@H](O)C=CC(=O)[C@]6(C)C4CC[C@]23C)C1 (some centres undefined)" testsystem="CHEK1 (human) (UniProt O14757)" group=F
compound="CNC(=O)C1[C@H]2O[C@@](C)([C@@H]1N)n1c3ccccc3c3c4c(c5c6ccccc6n2c5c31)C(=O)NC4 (some centres undefined)" testsystem="CHEK1 (human) (UniProt O14757)" group=T
compound=CC(C)(C#N)c1ccc(N2C(=O)OCc3cnc4ccc(-c5cnc6ccccc6c5)cc4c32)cc1 testsystem="CHEK1 (human) (UniProt O14757)" group=T
compound=Cc1cccc(-c2nn(C(=S)Nc3ccccc3)cc2-c2ccnc3ccccc23)n1 testsystem="CHEK1 (human) (UniProt O14757)" group=F
compound=Cc1cccc(Nc2nn(C)c3ncnc(N)c23)c1 testsystem="CHEK1 (human) (UniProt O14757)" group=F

Criterion: residual activity strictly below 90%. Is it met by COc1ccc2c(c1)c1c3c(c4c5ccccc5n(C)c4c1n2CC(O)CN(C)C)C(=O)NC3=O (centres undefined) ?
T

Criterion: residual activity strictly below 90%. Is it met by COc1cc(O)c2c(c1)[C@H]1OC1C[C@H](O)[C@H](O)C(=O)/C=C\C[C@H](C)OC2=O (some centres undefined) ?
F

Criterion: residual activity strictly below 90%. Is it met by "Cc1ccc(Sc2cnc(Nc3cccc(Br)n3)s2)cc1C(=O)N1CCN(C(=O)CN)CC1" ?
T

Criterion: residual activity strictly below 90%. Is it met by "CCNc1nc(Nc2cc(F)c(C(=O)N3CCOCC3)cc2OC)ncc1C(F)(F)F" ?
T

Criterion: residual activity strictly below 90%. Is it met by "Cc1ccc(-c2ccc3c(ccc4sc5c(c43)NC[C@@H](C)NC5=O)n2)cn1" ?
F

Criterion: residual activity strictly below 90%. Is it met by "O=C(NCCCNc1nc(Nc2cccc(CN3CCOCC3)c2)ncc1C1CC1)C1CCC1" ?
T

====

- testSystem: NEK6 (human) (UniProt Q9HC98)
- Sequence (Q9HC98 whole entry, looked up): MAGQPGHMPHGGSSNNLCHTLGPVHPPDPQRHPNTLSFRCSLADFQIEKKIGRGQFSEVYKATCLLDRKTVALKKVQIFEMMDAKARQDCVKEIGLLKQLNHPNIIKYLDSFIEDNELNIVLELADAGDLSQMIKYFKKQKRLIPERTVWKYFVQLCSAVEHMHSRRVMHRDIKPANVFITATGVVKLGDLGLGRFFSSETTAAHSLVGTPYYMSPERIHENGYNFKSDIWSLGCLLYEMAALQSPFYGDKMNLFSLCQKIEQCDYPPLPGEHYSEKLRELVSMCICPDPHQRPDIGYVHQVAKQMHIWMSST
- assaySummary: radiometric filter-binding kinase assay
- testParameters: compound 1.0 µM
# residual activity per entry
Write the value in % as a bare number.

Examples from the recorded data:
compound=NC1(c2ccc(-c3nc4ccn5c(=O)[nH]nc5c4cc3-c3ccccc3)cc2)CCC1 observedvalue=98
compound=O=C1NC(=S)N[C@@H]1Cc1c[nH]c2ccccc12 observedvalue=83
compound=Cn1nc(Nc2ccc(F)cc2)c2c(N)ncnc21 observedvalue=95
compound="CC1=C(CO)C(=O)O[C@@H]([C@@H](C)[C@H]2CC[C@H]3[C@@H]4C[C@H]5O[C@]56[C@@H](O)C=CC(=O)[C@]6(C)C4CC[C@]23C)C1 (stereo not given in full)" observedvalue=102

Now for the compound whose residual activity we want.
Give the reported residual activity for this compound. "NC(=O)c1cc(-c2ccnc(NC3CCCCC3)c2)nc(N2CCNCC2)c1"
87
